In this section we review reported mass density values for a set of molecules.
condition_info: 293.15 K; 10000 kPa; Liquid; vibrating tube
Report only the number, with the unit kg/m3 understood.

Notebook: CCCCCCCC[n+]1ccn(C)c1.F[B-](F)(F)F [1-methyl-3-octylimidazolium tetrafluoroborate] , mass density read as 1112.63

---

condition_info: 283.15 K; 20000 kPa; Liquid; vibrating tube
± gives the expanded uncertainty stated by the source.
reported_metric: mass density
Record the result as number plus unit.

Record excerpt, results attached:
CCCCCCn1cc[n+](C)c1.F[B-](F)(F)F [1-hexyl-3-methylimidazolium tetrafluoroborate]; 1165.02 ± 0.95 kg/m3
CCCCn1cc[n+](C)c1.F[B-](F)(F)F [1-butyl-3-methylimidazolium tetrafluoroborate]; 1221.2 ± 0.98 kg/m3
CCCCCCCC[n+]1ccn(C)c1.F[B-](F)(F)F [1-methyl-3-octylimidazolium tetrafluoroborate]; 1123.96 ± 0.93 kg/m3

Now consider a different molecule.
Reported mass density ( CCn1cc[n+](C)c1.F[B-](F)(F)F [1-ethyl-3-methylimidazolium tetrafluoroborate] ) = 1305.3 ± 1.6 kg/m3

---

condition_info: 313.15 K; 4000 kPa; Liquid; vibrating tube
reported_metric: mass density (kg/m3)
Give just the numeric value; kg/m3 need not be written.

CCCCCCCC[n+]1ccn(C)c1.F[B-](F)(F)F [1-methyl-3-octylimidazolium tetrafluoroborate]; 1096.26

Summary for this compound, CCCCCCn1cc[n+](C)c1.F[B-](F)(F)F [1-hexyl-3-methylimidazolium tetrafluoroborate] : mass density is 1137.11

mass density recorded for this compound, CCCCn1cc[n+](C)c1.F[B-](F)(F)F [1-butyl-3-methylimidazolium tetrafluoroborate] , is 1192.9

Summary for this compound, CCn1cc[n+](C)c1.F[B-](F)(F)F [1-ethyl-3-methylimidazolium tetrafluoroborate] : mass density is 1275.93

---

condition_info: 308.15 K; 60000 kPa; Liquid; vibrating tube
Documented mass density across a set of molecules
Report as a plain number; the unit kg/m3 is understood.

CCCCCCn1cc[n+](C)c1.F[B-](F)(F)F [1-hexyl-3-methylimidazolium tetrafluoroborate]; 1165.72

For record CCn1cc[n+](C)c1.F[B-](F)(F)F [1-ethyl-3-methylimidazolium tetrafluoroborate] the listed mass density is 1302.82

The value of mass density measured for the molecule CCCCn1cc[n+](C)c1.F[B-](F)(F)F [1-butyl-3-methylimidazolium tetrafluoroborate] turned out to be 1220.57

// mass density lookup, molecule = CCCCCCCC[n+]1ccn(C)c1.F[B-](F)(F)F [1-methyl-3-octylimidazolium tetrafluoroborate] , result: 1125.53

---

mass density: recorded values
condition_info: 318.15 K; 2000 kPa; Liquid; vibrating tube
Lab book: enter the figure in kg/m3, no units written.

CCCCCCCC[n+]1ccn(C)c1.F[B-](F)(F)F [1-methyl-3-octylimidazolium tetrafluoroborate]; 1091.83
CCCCCCn1cc[n+](C)c1.F[B-](F)(F)F [1-hexyl-3-methylimidazolium tetrafluoroborate]; 1132.7
CCn1cc[n+](C)c1.F[B-](F)(F)F [1-ethyl-3-methylimidazolium tetrafluoroborate]; 1271.3

Attention now shifts to the item below.
For this molecule ( CCCCn1cc[n+](C)c1.F[B-](F)(F)F [1-butyl-3-methylimidazolium tetrafluoroborate] ), measured mass density is 1188.43
